Recorded values, source paper PMC9928118.

Please respond with reported Chip Fluorescence (max) for every item in the list.
System: GST-tagged Cn
Assay: PEPperPRINT peptide microarray binding assay with GST-tagged Cn
Conditions: GST-tagged Cn, max over the spots on the chip (two locations)

Inquiry: Please report the recorded Chip Fluorescence (max) for PSMYQPHIIVKVAETE [SeqRBM_4049] .
Reply text: 1.118

Inquiry: Please report the recorded Chip Fluorescence (max) for TFWTNPQFKITLTDPD [SeqRBMlowT_9027] .
Reply text: 1.278

Inquiry: Please report the recorded Chip Fluorescence (max) for SQFDQVHYGLHIATFH [Seqshuffled_4372] .
Reply text: 1.111

Inquiry: Please report the recorded Chip Fluorescence (max) for TFWTNPQYRLWIVSVD [SeqRBM_2615] .
Reply text: 1.0899

Inquiry: Please report the recorded Chip Fluorescence (max) for HVSSSPDITITPTQHR [SeqRBMlowT_702] .
Reply text: 1.204

Inquiry: Please report the recorded Chip Fluorescence (max) for SQMAAPAINIDFAPTN [SeqRBMlowT_314] .
Reply text: 0.998

Inquiry: Please report the recorded Chip Fluorescence (max) for RAYINPFMQFTDGGRR [SeqRBMlowT_4069] .
Reply text: 1.3045

Inquiry: Please report the recorded Chip Fluorescence (max) for LHPTCDPFRCSTHQSH [Seqshuffled_9610] .
Reply text: 1.254

Inquiry: Please report the recorded Chip Fluorescence (max) for VSTDAPHSTRNDSGGP [SeqRBM_8532] .
Reply text: 0.9892

Inquiry: Please report the recorded Chip Fluorescence (max) for TFWTNPQFKVKLEEVD [SeqRBMlowT_284] .
Reply text: 1.062

Inquiry: Please report the recorded Chip Fluorescence (max) for SFWTNPQFRVKLEEVD [SeqRBMlowT_8566] .
Reply text: 1.129

Inquiry: Please report the recorded Chip Fluorescence (max) for SSSSLPTFQFSTPATL [SeqRBM_7341] .
Reply text: 1.265

Inquiry: Please report the recorded Chip Fluorescence (max) for TSSSLPTFNFSSSVIT [SeqNUP153_Canis_lupus] .
Reply text: 0.9878
